Each recorded value in this set is attributed to ChEMBL document CHEMBL4354819.

Reported IC50 is given for each of the following compounds.
Study System: UniProt:Q9NR97
Sequence (Q9NR97 whole entry): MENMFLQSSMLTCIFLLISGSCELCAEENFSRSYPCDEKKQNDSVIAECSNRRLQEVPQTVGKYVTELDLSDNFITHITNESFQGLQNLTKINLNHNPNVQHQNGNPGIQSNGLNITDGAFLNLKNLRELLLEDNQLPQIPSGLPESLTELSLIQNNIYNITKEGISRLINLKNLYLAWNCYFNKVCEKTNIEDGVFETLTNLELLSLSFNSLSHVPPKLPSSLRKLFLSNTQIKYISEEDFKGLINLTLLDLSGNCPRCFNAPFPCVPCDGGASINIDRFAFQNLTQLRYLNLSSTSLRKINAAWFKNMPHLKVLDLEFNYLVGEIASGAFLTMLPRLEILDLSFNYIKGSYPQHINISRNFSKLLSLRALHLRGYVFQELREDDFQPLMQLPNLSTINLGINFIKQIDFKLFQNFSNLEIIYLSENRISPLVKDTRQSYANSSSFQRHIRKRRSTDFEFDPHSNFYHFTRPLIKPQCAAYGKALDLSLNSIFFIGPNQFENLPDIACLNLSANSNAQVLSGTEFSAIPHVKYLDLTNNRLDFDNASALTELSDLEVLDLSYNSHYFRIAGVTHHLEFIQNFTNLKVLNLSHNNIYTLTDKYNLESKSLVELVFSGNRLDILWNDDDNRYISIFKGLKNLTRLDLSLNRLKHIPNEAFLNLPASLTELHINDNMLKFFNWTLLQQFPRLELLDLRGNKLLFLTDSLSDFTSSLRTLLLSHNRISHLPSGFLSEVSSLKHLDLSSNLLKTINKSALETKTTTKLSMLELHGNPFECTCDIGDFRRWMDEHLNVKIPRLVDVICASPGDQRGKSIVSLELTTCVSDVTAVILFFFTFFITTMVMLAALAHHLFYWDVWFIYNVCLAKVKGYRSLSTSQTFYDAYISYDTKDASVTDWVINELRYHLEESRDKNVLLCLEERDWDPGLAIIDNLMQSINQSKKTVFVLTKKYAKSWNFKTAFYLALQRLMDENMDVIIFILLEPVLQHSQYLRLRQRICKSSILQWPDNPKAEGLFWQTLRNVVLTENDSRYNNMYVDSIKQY
Protocol Text: Inhibition of human TLR8 expressed in HEK293 cells assessed as reduction in R848-induced NFkappaB production incubated for 16 hrs by quanti-blue SEAP assay
Assay type: cell-based

Using known records, supply IC50 for O=C(Nc1ccc(Oc2cc(C(F)(F)F)cc(C(F)(F)F)c2)cc1)c1c(F)cccc1OC(F)(F)F
> 50 µM

Below: the item to evaluate.
Give the measured IC50 for O=C(Nc1ccc(Oc2cc(I)cc(C(F)(F)F)c2)cc1)c1c(F)cccc1Cl
> 5 µM
